- Measured Target: porcine pancreatic elastase (PPE) (Sus scrofa, UniProt P00772)
- Construct: purchased Sigma-Aldrich (St. Louis, MO, United States)
- Sequence (P00772 27-266): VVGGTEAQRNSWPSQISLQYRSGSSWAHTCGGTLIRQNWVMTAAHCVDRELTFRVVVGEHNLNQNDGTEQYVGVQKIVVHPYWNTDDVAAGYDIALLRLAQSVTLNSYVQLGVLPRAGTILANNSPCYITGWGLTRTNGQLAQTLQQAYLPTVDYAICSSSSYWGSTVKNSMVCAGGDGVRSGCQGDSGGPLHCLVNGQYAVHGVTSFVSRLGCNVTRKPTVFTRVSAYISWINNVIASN
- Assay Name: Intrinsic fluorescence quenching of PPE: Stern-Volmer, binding constants, thermodynamics
- Settings: Ka binding constant, 310 K
# key: entry, value: pKd
Scale explanation: pKd corresponds to minus log10 of a concentration expressed in moles per litre.

Illustrative cases are given below, each with its answer.
Compound	Test Result
O=c1cc(-c2ccc(O)c(O)c2)oc2cc(O[C@@H]3O[C@H](CO)[C@@H](O)[C@H](O)[C@H]3O)cc(O)c12 [luteoloside]	4.26
O=c1cc(-c2ccc(O)c(O)c2)oc2cc(O)cc(O)c12	3.99

Now for another entry.
Report measured pKd on porcine pancreatic elastase (PPE) (Sus scrofa, UniProt P00772); entry: O=c1c(O[C@@H]2O[C@H](CO)[C@H](O)[C@H](O)[C@H]2O)c(-c2ccc(O)c(O)c2)oc2cc(O)cc(O)c12 [hyperoside] 4.50

----------
- Measured Target: porcine pancreatic elastase (PPE) (Sus scrofa, UniProt P00772)
- Construct: purchased Sigma-Aldrich (St. Louis, MO, United States)
- Assay Name: Fluorescence resonance energy transfer and binding distance
- Settings: [PPE] = [flavonoid] = 10 μM, 298 K
- Description: The PPE-quercetin, PPE-hyperoside, PPE-luteolin, and PPE-luteoloside binding distances were calculated according to the fluorescence resonance energy transfer theory ([31]–[33]): J=∑FD(λ)εA(λ)λ^4Δλ/∑FD(λ)Δλ (9) […]
Measured Parameter: binding distance r (nm)
Supply the numeric figure in nm, leaving out any unit text.

Example entries and their recorded answers appear below.
Compound	Measured Target	Measured Parameter	Test Result
O=c1cc(-c2ccc(O)c(O)c2)oc2cc(O)cc(O)c12 [luteolin]	porcine pancreatic elastase (PPE) (Sus scrofa, UniProt P00772)	binding distance r	2.67
O=c1cc(-c2ccc(O)c(O)c2)oc2cc(O[C@@H]3O[C@H](CO)[C@@H](O)[C@H](O)[C@H]3O)cc(O)c12 [luteoloside]	porcine pancreatic elastase (PPE) (Sus scrofa, UniProt P00772)	binding distance r	2.71
O=c1c(O[C@@H]2O[C@H](CO)[C@H](O)[C@H](O)[C@H]2O)c(-c2ccc(O)c(O)c2)oc2cc(O)cc(O)c12 [hyperoside]	porcine pancreatic elastase (PPE) (Sus scrofa, UniProt P00772)	binding distance r	2.40

Next item in the queue.
Give a short answer stating reported binding distance r for O=c1c(O)c(-c2ccc(O)c(O)c2)oc2cc(O)cc(O)c12 [quercetin] . 2.82

----------
IC50 listing for selected compounds.
- Measured Target: UniProt:P00772
I only need the number, in µM, no unit after it.

See these solved cases before continuing.
Compound	Measured Target	Uom	IC50
O=c1cc(-c2ccc(O)c(O)c2)oc2cc(O)cc(O)c12 [luteolin]	UniProt:P00772	µM	18.2
O=c1c(O[C@@H]2O[C@H](CO)[C@H](O)[C@H](O)[C@H]2O)c(-c2ccc(O)c(O)c2)oc2cc(O)cc(O)c12 [hyperoside]	UniProt:P00772	µM	31

Proceeding to the next compound to report its IC50.
Fill in: IC50 on UniProt:P00772, entry O=c1cc(-c2ccc(O)c(O)c2)oc2cc(O[C@@H]3O[C@H](CO)[C@@H](O)[C@H](O)[C@H]3O)cc(O)c12 [luteoloside] 61.3

----------
- Measured Target: porcine pancreatic elastase (PPE) (Sus scrofa, UniProt P00772)
- Construct: purchased Sigma-Aldrich (St. Louis, MO, United States)
- Assay Name: Intrinsic fluorescence quenching of PPE: Stern-Volmer, binding constants, thermodynamics
- Settings: 310 K
Measured Parameter: ΔG
Be sure to follow the number with its unit.

In the examples that follow, each entry is paired with its recorded ΔG.
Compound	Test Result
O=c1cc(-c2ccc(O)c(O)c2)oc2cc(O)cc(O)c12 [luteolin]	-6.52 kcal/mol
O=c1cc(-c2ccc(O)c(O)c2)oc2cc(O[C@@H]3O[C@H](CO)[C@@H](O)[C@H](O)[C@H]3O)cc(O)c12 [luteoloside]	-6.042 kcal/mol
O=c1c(O)c(-c2ccc(O)c(O)c2)oc2cc(O)cc(O)c12 [quercetin]	-5.284 kcal/mol

API: the following record is the query input.
Identify the reported ΔG for the following entry. O=c1c(O[C@@H]2O[C@H](CO)[C@H](O)[C@H](O)[C@H]2O)c(-c2ccc(O)c(O)c2)oc2cc(O)cc(O)c12 [hyperoside] -6.881 kcal/mol

----------
- Measured Target: porcine pancreatic elastase (PPE) (Sus scrofa)
- Construct: purchased Sigma-Aldrich (St. Louis, MO, United States)
- Assay Name: Intrinsic fluorescence quenching of PPE: Stern-Volmer, binding constants, thermodynamics
- Settings: 298 K
Recorded KSV Stern-Volmer quenching constant by entry

Compound	Measured Target	KSV Stern-Volmer quenching constant
O=c1cc(-c2ccc(O)c(O)c2)oc2cc(O[C@@H]3O[C@H](CO)[C@@H](O)[C@H](O)[C@H]3O)cc(O)c12 [luteoloside]	porcine pancreatic elastase (PPE) (Sus scrofa)	1.79 10^4 L•mol^−1
O=c1c(O[C@@H]2O[C@H](CO)[C@H](O)[C@H](O)[C@H]2O)c(-c2ccc(O)c(O)c2)oc2cc(O)cc(O)c12 [hyperoside]	porcine pancreatic elastase (PPE) (Sus scrofa)	5.47 10^4 L•mol^−1
O=c1c(O)c(-c2ccc(O)c(O)c2)oc2cc(O)cc(O)c12	porcine pancreatic elastase (PPE) (Sus scrofa)	0.59 10^4 L•mol^−1

Query compound follows.
Indicate its recorded KSV Stern-Volmer quenching constant; the compound in question is O=c1cc(-c2ccc(O)c(O)c2)oc2cc(O)cc(O)c12 1.15 10^4 L•mol^−1

----------
- Measured Target: porcine pancreatic elastase (PPE) (Sus scrofa)
- Construct: purchased Sigma-Aldrich (St. Louis, MO, United States)
- Assay Name: Intrinsic fluorescence quenching of PPE: Stern-Volmer, binding constants, thermodynamics
- Settings: 303 K
Examples of compounds with documented KSV Stern-Volmer quenching constant follow.

// worked examples, KSV Stern-Volmer quenching constant included
Compound	Test Result
O=c1cc(-c2ccc(O)c(O)c2)oc2cc(O)cc(O)c12 [luteolin]	1.04 10^4 L•mol^−1
O=c1c(O[C@@H]2O[C@H](CO)[C@H](O)[C@H](O)[C@H]2O)c(-c2ccc(O)c(O)c2)oc2cc(O)cc(O)c12 [hyperoside]	4.85 10^4 L•mol^−1
O=c1cc(-c2ccc(O)c(O)c2)oc2cc(O[C@@H]3O[C@H](CO)[C@@H](O)[C@H](O)[C@H]3O)cc(O)c12 [luteoloside]	1.66 10^4 L•mol^−1

Shift focus to the following entry.
Report KSV Stern-Volmer quenching constant for O=c1c(O)c(-c2ccc(O)c(O)c2)oc2cc(O)cc(O)c12 [quercetin] 0.58 10^4 L•mol^−1

----------
- Measured Target: porcine pancreatic elastase (PPE) (Sus scrofa, UniProt P00772)
- Construct: purchased Sigma-Aldrich (St. Louis, MO, United States)
- Assay Name: Intrinsic fluorescence quenching of PPE: Stern-Volmer, binding constants, thermodynamics
- Settings: 310 K
Consider the following molecules and their measured KSV Stern-Volmer quenching constant readings.

Sample answers from the record:
Molecule	KSV Stern-Volmer quenching constant
O=c1cc(-c2ccc(O)c(O)c2)oc2cc(O)cc(O)c12 [luteolin]	0.98 10^4 L•mol^−1
O=c1c(O)c(-c2ccc(O)c(O)c2)oc2cc(O)cc(O)c12 [quercetin]	0.52 10^4 L•mol^−1
O=c1cc(-c2ccc(O)c(O)c2)oc2cc(O[C@@H]3O[C@H](CO)[C@@H](O)[C@H](O)[C@H]3O)cc(O)c12 [luteoloside]	1.57 10^4 L•mol^−1

Now turn to the next molecule.
Give KSV Stern-Volmer quenching constant for O=c1c(O[C@@H]2O[C@H](CO)[C@H](O)[C@H](O)[C@H]2O)c(-c2ccc(O)c(O)c2)oc2cc(O)cc(O)c12 [hyperoside] tested on porcine pancreatic elastase (PPE) (Sus scrofa, UniProt P00772). 4.78 10^4 L•mol^−1

----------
- Measured Target: porcine pancreatic elastase (PPE) (Sus scrofa, UniProt P00772)
- Construct: purchased Sigma-Aldrich (St. Louis, MO, United States)
- Assay Name: FT-IR spectra of PPE-monomer complexes
- Settings: PPE 10 μM, flavonoid 100 μM
- Method: FTIR spectra were obtained using the potassium bromide (KBr) compression method with a Nicolet IS-50 spectrometer (Thermo Fisher Scientific, Waltham, MA, United States). […] The sheets were then dried at 45 °C and pressed. Blank background for the PBS buffer sheets. The spectral region between 4,000 and 500 cm^−1 was selected to examine changes in the secondary structure resulting from enzyme-drug interactions. […]
Measured Parameter: amide I band of PPE after addition (from 1638.45) (cm⁻¹)
Quick note: give the figure in cm⁻¹, leave out the unit.

Before answering, review these 3 worked examples.
Compound	Uom	Test Result
O=c1cc(-c2ccc(O)c(O)c2)oc2cc(O[C@@H]3O[C@H](CO)[C@@H](O)[C@H](O)[C@H]3O)cc(O)c12 [luteoloside]	cm⁻¹	1634.55
O=c1c(O)c(-c2ccc(O)c(O)c2)oc2cc(O)cc(O)c12	cm⁻¹	1633.59
O=c1c(O[C@@H]2O[C@H](CO)[C@H](O)[C@H](O)[C@H]2O)c(-c2ccc(O)c(O)c2)oc2cc(O)cc(O)c12 [hyperoside]	cm⁻¹	1633.14

Give recorded amide I band of PPE after addition (from 1638.45). O=c1cc(-c2ccc(O)c(O)c2)oc2cc(O)cc(O)c12 1632.53
